tested on: SEM cells; test: cell viability relative to DMSO control; higher = less cytotoxic; conditions: RPMI 5 mM glucose + 10% FBS; 48 h; 46.1 µM
parameterMeasured: cell viability (%)
Write the number in % without appending the unit.

Examples from the recorded data:
substanceSmiles	unitAbbrev	cell viability
CC(C)(C)OC(=O)CN(Cc1ccc(Cl)cc1)Cc1ccc([N+](=O)[O-])s1	%	26.1
C[C@H](NC(=O)C(=O)Nc1ccccc1C(C)(C)C)C(=O)N[C@@H](CC(=O)O)C(=O)COc1c(F)c(F)cc(F)c1F	%	5.77
CN1C(=O)\C(=C/C(=C1/NC2=C(F)C=C(I)C=C2)C(=O)NOCCO)C	%	65

Moving on to another compound below.
According to the records, this compound Nc1nc(-c2nn(Cc3ccccc3F)c3ncccc23)nc(N)c1N1CCOCC1 displays cell viability of 80.6
